Quick reference for MIC90 among some compounds
# Test system: rRMP (Rifampicin-resistant TB strain)
# method description: microbe, parasite or virus in culture
# Format: cell-based, Mycobacterium tuberculosis
# conditions used: single drug resistant strain rRMP
Kindly answer with a numeric value in µM, unit omitted.

Study these solved cases before continuing.
compound	u	MIC90
Cc1ccn2c(C(=O)NCc3cccc(OC(C)C)c3)c(C)nc2c1 [ND-9872]	µM	0.23
Cc1ccc2nc(C)c(C(=O)NCc3ccc(S(C)(=O)=O)cc3)n2c1 [ND-9965]	µM	0.54

In the following, a different compound is considered.
Identify MIC90 associated with the compound Cc1ccn2c(C(=O)NCc3ncc(C(F)(F)F)cc3Cl)c(C)nc2c1 [ND-9902]
0.74

* * *

Entries annotated with measured MIC90
# Tested on: rKM (Kanamycin-resistant TB strain)
# method description: microbe, parasite or virus in culture
# Assay type: cell-based, Mycobacterium tuberculosis
# conditions used: single drug resistant strain rKM
Expressed in µM, but write only the number.

molecule	u	MIC90
Cc1ccn2c(C(=O)NCc3ncc(C(F)(F)F)cc3Cl)c(C)nc2c1 [ND-9902]	µM	2.96

Answer with the recorded MIC90 for the molecule listed here: Cc1ccn2c(C(=O)NCc3cccc(OC(C)C)c3)c(C)nc2c1 [ND-9872]
0.89

Please report the measured MIC90 for Cc1ccn2c(C(=O)NCc3ccc(Oc4ccc(F)cc4)cc3)c(C)nc2c1 [ND-9758]
0.01

Quick one: give measured MIC90 for Cc1ccc2nc(C)c(C(=O)NCc3ccc(S(C)(=O)=O)cc3)n2c1 [ND-9965]
1.98
